// data source = patent US9949976B2

assay-overview: Pharmacokinetics in nude mouse (IV and PO)
Assay type: in vivo
experimental-parameters: female, BALB/c nude, plasma, PO, 10 mg/kg
measurement-kind: Cmax (ng/mL)

[[record]]
compound = "Cc1nc2c(F)cc(-c3cc(Nc4ncc(CN5C[C@H]6CN(C)C[C@H]6C5)cn4)ncc3F)cc2n1C(C)C [Compound 6-1]"
unit_tag = "ng/mL"
numeric_result = 300

[[record]]
compound = "CCN1CCN(Cc2ccc(Nc3ncc(F)c(-c4cc(F)c5nc(C)n(C(C)C)c5c4)n3)nc2)CC1 [LY2835219, reference compound]"
unit_tag = "ng/mL"
numeric_result = 368

[[record]]
compound = "CCN1CCN(Cc2cnc(Nc3cc(-c4cc(F)c5nc(C)n(C(C)C)c5c4)c(F)cn3)nc2)CC1 [Compound 1]"
unit_tag = "ng/mL"
numeric_result = 675


----------
assay-overview: Pharmacokinetics in nude mouse (IV and PO)
Type: in vivo
experimental-parameters: female, BALB/c nude, plasma, PO, 100 mg/kg
From the text: Test animal: female nude mouse (BALB/c); control agent: 3 mice/administration route at each time point, weight: 22-25 g/mouse; Compound 1: 3 mice/administration route at each time point, weight: 22-25 g/mouse; Compound 6-1: 6 mice/administration route/test compound, weight: 18-26 g/mouse. […]
measurement-kind: Tmax (h)

[[record]]
molecule = "CCN1CCN(Cc2cnc(Nc3cc(-c4cc(F)c5nc(C)n(C(C)C)c5c4)c(F)cn3)nc2)CC1 [Compound 1]"
measurement_kind = "Tmax"
unit_tag = "h"
numeric_result = 2


----------
assay-overview: PK in U-87MG subcutaneous tumor model of BALB/c nude mouse
Type: in vivo
experimental-parameters: female, plasma, U87MG tumor-bearing nude mouse, PO QD 3 weeks, 50 mg/kg, after last administration (Day 22)
Quick reference: Cmax of the listed items.
measurement-kind: Cmax (ng/mL)

[[record]]
compound = "CCN1CCN(Cc2cnc(Nc3cc(-c4cc(F)c5nc(C)n(C(C)C)c5c4)c(F)cn3)nc2)CC1 [Compound 1]"
measurement_kind = "Cmax"
unit_tag = "ng/mL"
numeric_result = 1770

[[record]]
compound = "CCN1CCN(Cc2ccc(Nc3ncc(F)c(-c4cc(F)c5nc(C)n(C(C)C)c5c4)n3)nc2)CC1 [LY2835219, reference compound]"
measurement_kind = "Cmax"
unit_tag = "ng/mL"
numeric_result = 1160


----------
assay-overview: Pharmacokinetics in nude mouse (IV and PO)
Format: in vivo
experimental-parameters: female, BALB/c nude, plasma, PO, 100 mg/kg
measurement-kind: Cmax (ng/mL)

[[record]]
molecule_smiles = "CCN1CCN(Cc2cnc(Nc3cc(-c4cc(F)c5nc(C)n(C(C)C)c5c4)c(F)cn3)nc2)CC1"
measurement_kind = "Cmax"
numeric_result = 3080


----------
assay-overview: Linear pharmacokinetics in rat (PO)
Format: in vivo, male SD rat
experimental-parameters: male, SD, plasma, 135 mg/kg
measurement-kind: Cmax (µg/mL)

[[record]]
compound = "CCN1CCN(Cc2cnc(Nc3cc(-c4cc(F)c5nc(C)n(C(C)C)c5c4)c(F)cn3)nc2)CC1"
measurement_kind = "Cmax"
numeric_result = 2.41

[[record]]
compound = "CCN1CCN(Cc2ccc(Nc3ncc(F)c(-c4cc(F)c5nc(C)n(C(C)C)c5c4)n3)nc2)CC1 [LY2835219, reference compound]"
measurement_kind = "Cmax"
numeric_result = 1.37


----------
assay-overview: PK in U-87MG subcutaneous tumor model of BALB/c nude mouse
Type: in vivo
experimental-parameters: female, plasma, U87MG tumor-bearing nude mouse, PO QD 3 weeks, 50 mg/kg, after last administration (Day 22)
Quick reference: Tmax of the listed items.
measurement-kind: Tmax (h)

[[record]]
compound = "CCN1CCN(Cc2cnc(Nc3cc(-c4cc(F)c5nc(C)n(C(C)C)c5c4)c(F)cn3)nc2)CC1"
numeric_result = 2

[[record]]
compound = "CCN1CCN(Cc2ccc(Nc3ncc(F)c(-c4cc(F)c5nc(C)n(C(C)C)c5c4)n3)nc2)CC1 [LY2835219, reference compound]"
numeric_result = 1


----------
assay-overview: Linear pharmacokinetics in rat (PO)
Type: in vivo, male SD rat
experimental-parameters: male, SD, plasma, 45 mg/kg
measurement-kind: Tmax (h)

[[record]]
molecule = "CCN1CCN(Cc2cnc(Nc3cc(-c4cc(F)c5nc(C)n(C(C)C)c5c4)c(F)cn3)nc2)CC1"
measurement_kind = "Tmax"
numeric_result = 4

[[record]]
molecule = "CCN1CCN(Cc2ccc(Nc3ncc(F)c(-c4cc(F)c5nc(C)n(C(C)C)c5c4)n3)nc2)CC1 [LY2835219, reference compound]"
measurement_kind = "Tmax"
numeric_result = 4


----------
Quick reference: Tmax of the listed items.
assay-overview: PK in U-87MG subcutaneous tumor model of BALB/c nude mouse
Type: in vivo
experimental-parameters: female, plasma, U87MG tumor-bearing nude mouse, PO QD 3 weeks, 100 mg/kg, after last administration (Day 22)
measurement-kind: Tmax (h)

[[record]]
compound = "CCN1CCN(Cc2cnc(Nc3cc(-c4cc(F)c5nc(C)n(C(C)C)c5c4)c(F)cn3)nc2)CC1"
numeric_result = 1

[[record]]
compound = "CCN1CCN(Cc2ccc(Nc3ncc(F)c(-c4cc(F)c5nc(C)n(C(C)C)c5c4)n3)nc2)CC1 [LY2835219, reference compound]"
numeric_result = 4


----------
assay-overview: Linear pharmacokinetics in rat (PO)
Type: in vivo, male SD rat
experimental-parameters: male, SD, plasma, 135 mg/kg
measurement-kind: AUC(0-t) (µg·h/mL)

[[record]]
compound = "CCN1CCN(Cc2ccc(Nc3ncc(F)c(-c4cc(F)c5nc(C)n(C(C)C)c5c4)n3)nc2)CC1 [LY2835219, reference compound]"
measurement_kind = "AUC(0-t)"
numeric_result = 97.6

[[record]]
compound = "CCN1CCN(Cc2cnc(Nc3cc(-c4cc(F)c5nc(C)n(C(C)C)c5c4)c(F)cn3)nc2)CC1 [Compound 1]"
measurement_kind = "AUC(0-t)"
numeric_result = 136


----------
system-under-test: CDK4/D3 (Homo sapiens, UniProt P11802)
Sequence (P11802 whole entry): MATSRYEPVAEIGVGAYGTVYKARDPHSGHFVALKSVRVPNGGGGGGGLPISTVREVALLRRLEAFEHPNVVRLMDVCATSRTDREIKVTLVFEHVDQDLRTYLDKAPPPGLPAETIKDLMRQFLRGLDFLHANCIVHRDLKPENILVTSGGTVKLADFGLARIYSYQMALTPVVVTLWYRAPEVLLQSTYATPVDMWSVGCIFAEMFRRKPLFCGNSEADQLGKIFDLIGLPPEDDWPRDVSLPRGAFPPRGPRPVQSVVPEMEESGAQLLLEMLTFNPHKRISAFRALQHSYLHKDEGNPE
Sequence (P30281 whole entry partner): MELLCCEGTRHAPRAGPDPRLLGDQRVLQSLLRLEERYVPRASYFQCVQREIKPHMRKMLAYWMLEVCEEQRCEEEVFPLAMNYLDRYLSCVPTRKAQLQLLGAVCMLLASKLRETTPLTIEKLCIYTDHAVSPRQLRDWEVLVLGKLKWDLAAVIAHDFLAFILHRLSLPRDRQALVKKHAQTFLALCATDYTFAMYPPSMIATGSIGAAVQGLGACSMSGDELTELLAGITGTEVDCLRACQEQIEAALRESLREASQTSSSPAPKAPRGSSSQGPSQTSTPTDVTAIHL
assay-overview: In vitro enzyme-inhibiting activity, Caliper Mobility Shift method
experimental-parameters: read-out: CDK enzyme-inhibiting activity IC50 CDK4/D3
measurement-kind: IC50 (nM)

[[record]]
molecule_smiles = "CCN1CC2CCC(C1)N2Cc1cnc(Nc2cc(-c3cc(F)c4nc(C)n(C(C)C)c4c3)c(F)cn2)nc1"
measurement_kind = "IC50"
unit_tag = "nM"
numeric_result = 3

[[record]]
molecule_smiles = "CCN1C2CCC1CN(Cc1cnc(Nc3cc(-c4cc(F)c5nc(C)n(C(C)C)c5c4)c(F)cn3)nc1)C2"
measurement_kind = "IC50"
unit_tag = "nM"
numeric_result = 2.6

[[record]]
molecule_smiles = "CCN1CCN(Cc2cnc(Nc3cc(-c4cc(F)c5nc(C)n(C(C)C)c5c4)c(F)cn3)nc2)CC1"
measurement_kind = "IC50"
unit_tag = "nM"
numeric_result = 2.7


----------
assay-overview: Pharmacokinetics in nude mouse (IV and PO)
Format: in vivo
experimental-parameters: female, BALB/c nude, plasma, IV, 2.5 mg/kg, read-out: Vss
measurement-kind: Vd (L/kg)

[[record]]
molecule_smiles = "Cc1nc2c(F)cc(-c3cc(Nc4ncc(CN5C[C@H]6CN(C)C[C@H]6C5)cn4)ncc3F)cc2n1C(C)C"
numeric_result = 12.5


----------
Quick reference: AUC(0-t) of the listed items.
assay-overview: Linear pharmacokinetics in rat (PO)
Assay type: in vivo, male SD rat
experimental-parameters: male, SD, plasma, 45 mg/kg
measurement-kind: AUC(0-t) (ng·h/mL)

[[record]]
molecule = "CCN1CCN(Cc2ccc(Nc3ncc(F)c(-c4cc(F)c5nc(C)n(C(C)C)c5c4)n3)nc2)CC1 [LY2835219, reference compound]"
measurement_kind = "AUC(0-t)"
unit_tag = "ng·h/mL"
numeric_result = 32600

[[record]]
molecule = "CCN1CCN(Cc2cnc(Nc3cc(-c4cc(F)c5nc(C)n(C(C)C)c5c4)c(F)cn3)nc2)CC1 [Compound 1]"
measurement_kind = "AUC(0-t)"
unit_tag = "ng·h/mL"
numeric_result = 37700


----------
assay-overview: In vivo assay for blood brain barrier permeability in rat
experimental-parameters: male, SD, 30 mg/kg, PO, dose 30, brain tissue
measurement-kind: Tmax (h)

[[record]]
molecule = "CCN1CCN(Cc2ccc(Nc3ncc(F)c(-c4cc(F)c5nc(C)n(C(C)C)c5c4)n3)nc2)CC1 [LY2835219, reference compound]"
numeric_result = 4

[[record]]
molecule = "CCN1CCN(Cc2cnc(Nc3cc(-c4cc(F)c5nc(C)n(C(C)C)c5c4)c(F)cn3)nc2)CC1"
numeric_result = 4


----------
assay-overview: Pharmacokinetics in nude mouse (IV and PO)
Type: in vivo
experimental-parameters: female, BALB/c nude, plasma, IV, 5 mg/kg
Quick reference: clearance of the listed items.
measurement-kind: clearance (L/h/kg)

[[record]]
compound = "CCN1CCN(Cc2ccc(Nc3ncc(F)c(-c4cc(F)c5nc(C)n(C(C)C)c5c4)n3)nc2)CC1 [LY2835219, reference compound]"
measurement_kind = "clearance"
numeric_result = 3.01

[[record]]
compound = "CCN1CCN(Cc2cnc(Nc3cc(-c4cc(F)c5nc(C)n(C(C)C)c5c4)c(F)cn3)nc2)CC1 [Compound 1]"
measurement_kind = "clearance"
numeric_result = 2.29

